# melting point listing for each entry below
measure_name: melting point

> print(dat)
                                test.smiles   measure.name  observed.measurement
1  Cc1cc(Cn2c(Br)nnc2SCC(=O)[O-])sc1Br.[Na+]  melting point          87 °C (dec.)
2  CCc1ccc(Cn2c(Br)nnc2SCC(=O)[O-])s1.[Na+]  melting point         178 to 180 °C
3  N#Cc1ccc(Cc2cnccc2SC2(C(=O)[O-])CCC2)c2ccccc12.[Na+]  melting point         296 °C (dec.)
4  O=C([O-])CSc1nnc(Br)n1Cc1ccc2ncccc2c1.[Na+]  melting point         122 °C (dec.)
5  CC(C)(Sc1ncc(Br)n1Cc1ccc(C#N)c2ccccc12)C(=O)[O-].[Na+]  melting point         243 °C (dec.)
6  O=C([O-])CSc1nnc(Br)n1Cc1cccc2c1sc1ccccc12.[Na+]  melting point          74 °C (dec.)
